- TEST TARGET: LHRH (Rattus norvegicus)
- Construct: endogenous in cells; host or cells: rat pituitary cells (own knowledge of the cited Haviv 1989 method)
- Sequence (P30969 1-327): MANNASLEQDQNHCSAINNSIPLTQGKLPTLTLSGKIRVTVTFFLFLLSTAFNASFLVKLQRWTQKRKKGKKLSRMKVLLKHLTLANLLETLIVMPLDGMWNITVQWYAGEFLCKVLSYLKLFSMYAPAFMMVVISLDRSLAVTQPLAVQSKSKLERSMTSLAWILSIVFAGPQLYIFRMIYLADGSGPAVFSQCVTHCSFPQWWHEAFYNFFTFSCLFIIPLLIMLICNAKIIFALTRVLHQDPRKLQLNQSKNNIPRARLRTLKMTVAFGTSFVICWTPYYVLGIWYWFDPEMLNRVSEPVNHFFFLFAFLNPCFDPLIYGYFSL
- ASSAY EXPLANATION: in vitro test for LHRH antagonist potency (pA2)
- Type: cell-based
- PARTICULARS: negative logarithm of the antagonist concentration required to shift the response curve produced by the agonist leuprolide to two-fold higher concentration
Non-standard residues stand in square brackets, D forms with d. Residues, ends and D or L forms follow the SMILES beside them. *: point of attachment. dAla(benzothien-2-yl) = N[C@H](Cc1cc2ccccc2s1)C(=O)O; dPhe(4-Cl) = N[C@H](Cc1ccc(Cl)cc1)C(=O)O; d2Nal = N[C@H](Cc1ccc2ccccc2c1)C(=O)O; Lys(iPr) = CC(C)NCCCC[C@H](N)C(=O)O; NMeY = CN[C@@H](Cc1ccc(O)cc1)C(=O)O; Nicotinoyl = O=C(c1cccnc1)*; βAla = NCCC(=O)O
VALUE TYPE: Kb
Form field: result (number plus unit)

Prompt: Give recorded Kb with LHRH (Rattus norvegicus) for the following molecule: CC(C)C[C@H](NC(=O)[C@@H](CCCCNC(=O)c1cccnc1)NC(=O)[C@H](Cc1ccc(O)cc1)N(C)C(=O)[C@H](CO)NC(=O)[C@@H](Cc1cc2ccccc2s1)NC(=O)[C@@H](Cc1ccc(Cl)cc1)NC(=O)[C@@H](Cc1ccc2ccccc2c1)NC(=O)CCNC(=O)c1cccnc1)C(=O)N[C@@H](CCCCNC(C)C)C(=O)N1CCC[C@H]1C(=O)N[C@H](C)C(N)=O [Example 36] ({Nicotinoyl-βAla}-[d2Nal][dPhe(4-Cl)][dAla(benzothien-2-yl)]S[NMeY][dK](Nicotinoyl)L[Lys(iPr)]P[dA]-NH2)
Response: 0.0224 nM
